molecular target: ICK (human); test: KINOMEscan competition binding; conditions: compound 10.0 µM
QUANTITY MEASURED: kinase still bound, per cent of control (%)
Report the value in % with no unit label.

COc1cc2c(Nc3ccc(NC(=O)c4ccccc4)cc3)ncnc2cc1OCCCN1CCOCC1: 100

Then this compound:
Qu. For the compound shown here, CCN(CCO)CCCOc1ccc2c(Nc3cc(CC(=O)Nc4cccc(F)c4)[nH]n3)ncnc2c1 , give the reported kinase still bound, per cent of control.
Ans. 74

---

Reported values of kinase still bound, per cent of control for individual entries
molecular target: IKBKE (human) (UniProt Q14164); test: KINOMEscan competition binding; conditions: compound 10.0 µM
Sequence (Q14164 whole entry, looked up): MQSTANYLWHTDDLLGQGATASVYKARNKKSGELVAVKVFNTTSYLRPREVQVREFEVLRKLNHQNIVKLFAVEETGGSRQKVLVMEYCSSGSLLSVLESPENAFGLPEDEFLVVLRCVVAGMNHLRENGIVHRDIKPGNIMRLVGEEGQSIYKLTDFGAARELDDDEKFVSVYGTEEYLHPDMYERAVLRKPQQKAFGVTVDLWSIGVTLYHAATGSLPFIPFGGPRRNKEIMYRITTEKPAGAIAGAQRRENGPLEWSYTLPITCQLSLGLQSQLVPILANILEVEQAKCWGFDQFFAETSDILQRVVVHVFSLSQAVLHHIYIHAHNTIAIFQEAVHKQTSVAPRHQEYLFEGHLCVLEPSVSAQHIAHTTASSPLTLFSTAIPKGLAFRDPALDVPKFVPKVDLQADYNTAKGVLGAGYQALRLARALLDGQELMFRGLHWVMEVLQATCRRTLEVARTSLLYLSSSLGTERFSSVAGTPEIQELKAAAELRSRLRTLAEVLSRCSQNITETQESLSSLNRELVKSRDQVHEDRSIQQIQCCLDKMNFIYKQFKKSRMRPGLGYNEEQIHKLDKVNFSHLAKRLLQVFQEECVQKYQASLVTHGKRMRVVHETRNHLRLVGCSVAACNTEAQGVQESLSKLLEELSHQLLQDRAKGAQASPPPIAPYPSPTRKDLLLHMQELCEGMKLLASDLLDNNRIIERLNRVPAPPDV
Report the value in % with no unit label.

Qu. For the compound shown here, CCN(CCO)CCCOc1ccc2c(Nc3cc(CC(=O)Nc4cccc(F)c4)[nH]n3)ncnc2c1 , give the reported kinase still bound, per cent of control.
Ans. 51

Qu. For the compound shown here, O=c1[nH]c2ccccc2n1C1CCN(Cc2ccc(-c3nc4cc5[nH]cnc5cc4nc3-c3ccccc3)cc2)CC1 , give the reported kinase still bound, per cent of control.
Ans. 100

Qu. For the compound shown here, CC1=C(C(=O)Nc2cc3cn[nH]c3cc2F)C(c2ccc(C(F)(F)F)cc2)CC(=O)N1 (stereo not drawn) , give the reported kinase still bound, per cent of control.
Ans. 77

---

biological target: UniProt:P45985; experiment: KINOMEscan competition binding; settings: compound 10.0 µM
Sequence (P45985 whole entry, looked up): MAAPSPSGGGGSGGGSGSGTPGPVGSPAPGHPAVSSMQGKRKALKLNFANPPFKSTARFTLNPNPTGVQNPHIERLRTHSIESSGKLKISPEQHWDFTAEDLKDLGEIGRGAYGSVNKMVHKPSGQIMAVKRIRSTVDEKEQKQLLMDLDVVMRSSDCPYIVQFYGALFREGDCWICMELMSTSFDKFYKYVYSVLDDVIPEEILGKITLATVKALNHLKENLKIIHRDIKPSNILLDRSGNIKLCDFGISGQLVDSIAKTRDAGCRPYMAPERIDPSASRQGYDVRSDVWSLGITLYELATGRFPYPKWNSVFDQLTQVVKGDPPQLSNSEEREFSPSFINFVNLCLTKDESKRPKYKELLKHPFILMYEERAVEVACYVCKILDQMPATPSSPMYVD
QUANTITY MEASURED: kinase still bound, per cent of control (%)
Report the value in % with no unit label.

Record excerpt, results attached:
CCN1CCN(Cc2ccc(NC(=O)c3ccc(C)c(/C=C/c4cnc5[nH]ccc5c4OC)c3)cc2C(F)(F)F)CC1: 76
COc1cc(N2CCC(C(N)=O)CC2)ccc1Nc1nc(N)c(Cl)c(Nc2ccccc2S(=O)(=O)C(C)C)n1: 22
COc1cc2ncnc(Nc3cccc(Cl)c3)c2cc1OC: 85
COc1cc(C)c(Sc2cnc(NC(=O)c3ccc(CNC(C)C(C)C)cc3)s2)cc1C(=O)N1CCN(C(C)=O)CC1 (configuration not stated): 100
COc1ccc(N(C(=O)Oc2cc(C(=O)Nc3cccc(C(F)(F)F)c3)ccc2C)c2ccnc(Nc3ccc(N4CCN(C)CC4)cc3)n2)c(OC)c1: 100
Cc1cn(-c2cc(C(=O)Nc3ccc(C)c(NC(=O)c4ccno4)c3)cc(C(F)(F)F)c2)cn1: 100

Qu. For the molecule shown here, CCc1nc(-c2cccc(C)c2)c(-c2ccnc(NC(=O)c3ccccc3)c2)s1 , give the reported kinase still bound, per cent of control.
Ans. 95

---

Reported values of kinase still bound, per cent of control for individual entries
molecular target: UniProt Q9Y243; assay: KINOMEscan competition binding; conditions: compound 10.0 µM
Sequence (Q9Y243 whole entry, looked up): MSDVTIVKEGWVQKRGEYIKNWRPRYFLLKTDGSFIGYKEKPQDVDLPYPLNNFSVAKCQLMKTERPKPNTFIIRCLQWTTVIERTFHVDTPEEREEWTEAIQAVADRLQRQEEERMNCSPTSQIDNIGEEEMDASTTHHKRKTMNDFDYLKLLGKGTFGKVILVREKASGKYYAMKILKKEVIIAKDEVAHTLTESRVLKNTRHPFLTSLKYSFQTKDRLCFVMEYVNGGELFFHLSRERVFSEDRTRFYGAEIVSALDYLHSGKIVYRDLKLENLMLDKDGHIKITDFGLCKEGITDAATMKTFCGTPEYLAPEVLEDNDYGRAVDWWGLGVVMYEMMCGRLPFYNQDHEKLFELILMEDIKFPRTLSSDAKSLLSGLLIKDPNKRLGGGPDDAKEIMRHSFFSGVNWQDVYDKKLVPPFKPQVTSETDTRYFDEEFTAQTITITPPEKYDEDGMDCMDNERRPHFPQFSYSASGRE
Report the value in % with no unit label.

Record excerpt, results attached:
CCN1CCN(Cc2ccc(NC(=O)c3ccc(C)c(/C=C/c4cnc5[nH]ccc5c4OC)c3)cc2C(F)(F)F)CC1: 100
N#Cc1cc(-c2ccnc(Nc3ccc(-n4cnc(-c5cccnc5)n4)cc3)n2)cc(N2CCOCC2)c1: 100
CCc1nc(-c2cccc(C)c2)c(-c2ccnc(NC(=O)c3ccccc3)c2)s1: 95
CC1=C(C(=O)Nc2cc3cn[nH]c3cc2F)C(c2ccc(C(F)(F)F)cc2)CC(=O)N1 (stereo not given): 40
COc1ccc(N(C(=O)Oc2cc(C(=O)Nc3cccc(C(F)(F)F)c3)ccc2C)c2ccnc(Nc3ccc(N4CCN(C)CC4)cc3)n2)c(OC)c1: 100

Qu. For the compound shown here, COc1cc(N2CCC(C(N)=O)CC2)ccc1Nc1nc(N)c(Cl)c(Nc2ccccc2S(=O)(=O)C(C)C)n1 , give the reported kinase still bound, per cent of control.
Ans. 100

Qu. For the compound shown here, CCN(CCO)CCCOc1ccc2c(Nc3cc(CC(=O)Nc4cccc(F)c4)[nH]n3)ncnc2c1 , give the reported kinase still bound, per cent of control.
Ans. 88

Qu. For the compound shown here, CCOc1cc(N2CCC(O)CC2)ccc1Nc1ncc2c(n1)N(C)c1ccccc1C(=O)N2C , give the reported kinase still bound, per cent of control.
Ans. 100

Qu. For the compound shown here, N#C/C(=C1/Nc2ccccc2S1)c1ccnc(NCCc2cccnc2)n1 , give the reported kinase still bound, per cent of control.
Ans. 100

Qu. For the compound shown here, COc1cc2c(Nc3ccc(NC(=O)c4ccccc4)cc3)ncnc2cc1OCCCN1CCOCC1 , give the reported kinase still bound, per cent of control.
Ans. 100

Qu. For the compound shown here, Cc1cn(-c2cc(C(=O)Nc3ccc(C)c(NC(=O)c4ccno4)c3)cc(C(F)(F)F)c2)cn1 , give the reported kinase still bound, per cent of control.
Ans. 100

---

biological target: LTK (human); assay: KINOMEscan competition binding; conditions: compound 10.0 µM
QUANTITY MEASURED: kinase still bound, per cent of control
Please make sure the unit comes right after the number.

Qu. For the compound shown here, N#Cc1cc(-c2ccnc(Nc3ccc(-n4cnc(-c5cccnc5)n4)cc3)n2)cc(N2CCOCC2)c1 , give the reported kinase still bound, per cent of control.
Ans. 77%

Qu. For the compound shown here, CCN(CCO)CCCOc1ccc2c(Nc3cc(CC(=O)Nc4cccc(F)c4)[nH]n3)ncnc2c1 , give the reported kinase still bound, per cent of control.
Ans. 17%

Qu. For the compound shown here, CCOc1cc(N2CCC(O)CC2)ccc1Nc1ncc2c(n1)N(C)c1ccccc1C(=O)N2C , give the reported kinase still bound, per cent of control.
Ans. 100%

Qu. For the compound shown here, O=c1[nH]c2ccccc2n1C1CCN(Cc2ccc(-c3nc4cc5[nH]cnc5cc4nc3-c3ccccc3)cc2)CC1 , give the reported kinase still bound, per cent of control.
Ans. 56%

Qu. For the compound shown here, COc1ccc(N(C(=O)Oc2cc(C(=O)Nc3cccc(C(F)(F)F)c3)ccc2C)c2ccnc(Nc3ccc(N4CCN(C)CC4)cc3)n2)c(OC)c1 , give the reported kinase still bound, per cent of control.
Ans. 2.7%

Qu. For the compound shown here, COc1cc(N2CCC(C(N)=O)CC2)ccc1Nc1nc(N)c(Cl)c(Nc2ccccc2S(=O)(=O)C(C)C)n1 , give the reported kinase still bound, per cent of control.
Ans. 0.6%

---

target: PDGFRA (human) (UniProt P16234); assay: KINOMEscan competition binding; settings: compound 10.0 µM
Sequence (P16234 whole entry, looked up): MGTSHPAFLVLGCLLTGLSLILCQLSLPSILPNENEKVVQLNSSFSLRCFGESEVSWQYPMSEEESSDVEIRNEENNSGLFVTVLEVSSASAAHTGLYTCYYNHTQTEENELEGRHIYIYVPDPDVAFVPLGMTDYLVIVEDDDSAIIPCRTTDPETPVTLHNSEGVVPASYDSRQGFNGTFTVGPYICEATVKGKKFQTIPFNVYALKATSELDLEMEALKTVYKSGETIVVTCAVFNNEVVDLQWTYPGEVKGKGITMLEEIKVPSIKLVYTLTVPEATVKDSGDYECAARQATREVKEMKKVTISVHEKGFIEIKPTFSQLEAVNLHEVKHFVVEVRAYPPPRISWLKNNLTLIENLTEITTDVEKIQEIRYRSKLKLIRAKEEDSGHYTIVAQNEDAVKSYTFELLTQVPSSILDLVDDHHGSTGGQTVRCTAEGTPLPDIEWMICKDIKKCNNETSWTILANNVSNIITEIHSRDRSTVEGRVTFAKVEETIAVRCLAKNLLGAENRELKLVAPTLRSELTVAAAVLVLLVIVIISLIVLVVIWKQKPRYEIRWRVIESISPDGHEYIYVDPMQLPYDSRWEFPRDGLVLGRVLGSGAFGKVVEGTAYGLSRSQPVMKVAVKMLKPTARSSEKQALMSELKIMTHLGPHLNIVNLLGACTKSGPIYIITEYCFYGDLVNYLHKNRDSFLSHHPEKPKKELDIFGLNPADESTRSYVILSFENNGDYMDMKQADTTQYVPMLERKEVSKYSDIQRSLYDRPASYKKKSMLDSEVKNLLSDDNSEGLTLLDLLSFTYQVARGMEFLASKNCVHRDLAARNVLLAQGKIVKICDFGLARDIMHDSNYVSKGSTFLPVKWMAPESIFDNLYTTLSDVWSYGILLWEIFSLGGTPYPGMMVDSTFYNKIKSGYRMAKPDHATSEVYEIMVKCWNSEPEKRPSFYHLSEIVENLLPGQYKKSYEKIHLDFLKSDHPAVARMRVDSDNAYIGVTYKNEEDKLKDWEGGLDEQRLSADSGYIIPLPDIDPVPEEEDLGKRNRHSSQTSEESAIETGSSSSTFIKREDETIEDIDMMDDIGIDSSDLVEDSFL
Decide using kinase still bound, per cent of control alone. Strictly below 30%: yes. Equal to or above 30%: no.

Known results for compounds:
COc1cc2ncnc(Nc3cccc(Cl)c3)c2cc1OC: yes
CC1=C(C(=O)Nc2cc3cn[nH]c3cc2F)C(c2ccc(C(F)(F)F)cc2)CC(=O)N1 (stereo not given): no

Qu. hey, is kinase still bound, per cent of control for CCCS(=O)(=O)Nc1ccc(F)c(C(=O)c2c[nH]c3ncc(Cl)cc23)c1F lower than 30% or not?
Ans. yes

Qu. hey, is kinase still bound, per cent of control for O=c1[nH]c2ccccc2n1C1CCN(Cc2ccc(-c3nc4cc5[nH]cnc5cc4nc3-c3ccccc3)cc2)CC1 lower than 30% or not?
Ans. no

Qu. hey, is kinase still bound, per cent of control for COc1ccc(N(C(=O)Oc2cc(C(=O)Nc3cccc(C(F)(F)F)c3)ccc2C)c2ccnc(Nc3ccc(N4CCN(C)CC4)cc3)n2)c(OC)c1 lower than 30% or not?
Ans. yes

---

target: SBK1 (human); assay: KINOMEscan competition binding; details: compound 10.0 µM
Decide using kinase still bound, per cent of control alone. Strictly below 90%: 1. Equal to or above 90%: -1.

Known results for compounds:
CCc1nc(-c2cccc(C)c2)c(-c2ccnc(NC(=O)c3ccccc3)c2)s1: -1
Cc1cn(-c2cc(C(=O)Nc3ccc(C)c(NC(=O)c4ccno4)c3)cc(C(F)(F)F)c2)cn1: -1
CCN1CCN(Cc2ccc(NC(=O)c3ccc(C)c(/C=C/c4cnc5[nH]ccc5c4OC)c3)cc2C(F)(F)F)CC1: 1

Qu. hey, is kinase still bound, per cent of control for CC1=C(C(=O)Nc2cc3cn[nH]c3cc2F)C(c2ccc(C(F)(F)F)cc2)CC(=O)N1 (stereo not drawn) lower than 90% or not?
Ans. 1

Qu. hey, is kinase still bound, per cent of control for N#C/C(=C1/Nc2ccccc2S1)c1ccnc(NCCc2cccnc2)n1 lower than 90% or not?
Ans. -1

---

target: RPS6KA3 KD1 (human); assay: KINOMEscan competition binding; conditions: compound 10.0 µM
Decide using kinase still bound, per cent of control alone. Strictly below 50%: Criterion met. Equal to or above 50%: Criterion not met.

Known results for compounds:
CCN1CCN(Cc2ccc(NC(=O)c3ccc(C)c(/C=C/c4cnc5[nH]ccc5c4OC)c3)cc2C(F)(F)F)CC1: Criterion met
Cc1cn(-c2cc(C(=O)Nc3ccc(C)c(NC(=O)c4ccno4)c3)cc(C(F)(F)F)c2)cn1: Criterion not met
CCOc1cc(N2CCC(O)CC2)ccc1Nc1ncc2c(n1)N(C)c1ccccc1C(=O)N2C: Criterion not met
CC1=C(C(=O)Nc2cc3cn[nH]c3cc2F)C(c2ccc(C(F)(F)F)cc2)CC(=O)N1 (stereo unspecified): Criterion not met
CCCS(=O)(=O)Nc1ccc(F)c(C(=O)c2c[nH]c3ncc(Cl)cc23)c1F: Criterion not met

Qu. hey, is kinase still bound, per cent of control for C=CC(=O)Nc1ccc(C(=O)c2sc(Nc3ccc(N4CCN(C)CC4)cc3OC)nc2N)cc1 lower than 50% or not?
Ans. Criterion met
